Assay Protocol: Cytotoxicity against human PC3 cells assessed as inhibition of cell viability at 25 uM after 48 hrs by MTT assay relative to control
Assay type: functional
Experimental Context: PC-3, 48 h
Measured inhibition at 25 µM values are reported for all entries that follow.

>  <Smiles Structure>
COc1c(-c2ccc(C)cc2)c(C)nn1-c1ccccc1

>  <inhibition at 25 µM [%]>
18.5

$$$$
>  <Smiles Structure>
COc1c(C(=O)NCc2ccccc2)c(C)nn1-c1ccccc1

>  <inhibition at 25 µM [%]>
8.71

$$$$
>  <Smiles Structure>
COc1c(C(=O)NCc2ccc(Cl)cc2)c(C)nn1-c1ccccc1

>  <inhibition at 25 µM [%]>
45.8

$$$$
>  <Smiles Structure>
COc1c(-c2ccc(C#N)cc2)c(C)nn1-c1ccccc1

>  <inhibition at 25 µM [%]>
30.2

$$$$
>  <Smiles Structure>
COc1c(-c2ccc3ccccc3c2)c(C)nn1-c1ccccc1

>  <inhibition at 25 µM [%]>
27.6

$$$$
>  <Smiles Structure>
CC1=NN(c2ccccc2)C(=O)C1

>  <inhibition at 25 µM [%]>
1.43

$$$$
>  <Smiles Structure>
COc1ccc(-c2c(C)nn(-c3ccccc3)c2OC)c(OC)c1

>  <inhibition at 25 µM [%]>
33

$$$$
>  <Smiles Structure>
COc1c(C(=O)O)c(C)nn1-c1ccccc1

>  <inhibition at 25 µM [%]>
3.19

$$$$
